Cited source for all entries: paper PMC5706701

ASSAY TARGET: Human IP6K1 (Homo sapiens, UniProt Q92551)
Construct: GST (N, cleaved yes); made in house; host or cells: C43 E. coli, pGEX-6P-2
Sequence (Q92551 whole entry): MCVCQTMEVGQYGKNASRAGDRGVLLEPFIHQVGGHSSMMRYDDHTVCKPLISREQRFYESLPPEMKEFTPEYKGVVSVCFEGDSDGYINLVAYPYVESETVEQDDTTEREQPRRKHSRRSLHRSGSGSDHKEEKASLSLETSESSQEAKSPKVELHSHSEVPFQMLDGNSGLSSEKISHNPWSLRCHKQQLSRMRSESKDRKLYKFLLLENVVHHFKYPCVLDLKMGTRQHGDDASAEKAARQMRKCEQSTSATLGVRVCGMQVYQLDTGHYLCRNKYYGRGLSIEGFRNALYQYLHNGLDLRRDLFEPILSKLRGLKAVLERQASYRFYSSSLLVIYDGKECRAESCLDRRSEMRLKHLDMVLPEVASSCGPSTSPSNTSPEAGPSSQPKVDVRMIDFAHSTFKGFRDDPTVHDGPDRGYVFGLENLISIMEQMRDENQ
PROTOCOL NOTES: IP6K1 high-throughput screen of the Sigma LOPAC (ADP-Glo Max, single point);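 also: final compound concentration 10µM in 5% DMSO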
Format: biochemical
MEASUREMENT SETUP: LOPAC single-point screen, Z-score against plate average and StDev
Structures can show the parent of a compound that is named as a salt.
Decide by Z-score: equal to or exceeding 0.2 means met, less means not met.

{"COMPOUND": "NC(=S)c1ccc[n+]([C@@H]2O[C@@H](COP(=O)([O-])OP(=O)(O)OC[C@H]3O[C@@H](n4cnc5c(N)ncnc54)C(OP(=O)([O-])O)[C@H]3O)C(O)C2O)c1.[Na+] (stereo partly shown) [Thio-NADP sodium]", "DISCRETE LABEL": "not met"}
{"COMPOUND": "COc1cccc2c1[C@@H]1CN(CCCCn3c(=O)[nH]c4c(sc5ncc(-c6ccccc6)nc54)c3=O)C[C@@H]1CO2 [Fiduxosin hydrochloride]", "DISCRETE LABEL": "met"}
{"COMPOUND": "C[C@@](Cc1ccc(O)c(O)c1)(NN)C(=O)O [S-(-)-Carbidopa]", "DISCRETE LABEL": "not met"}
{"COMPOUND": "O=c1c2ccccc2[nH]c(=S)n1CCN1CCC(=C(c2ccc(F)cc2)c2ccc(F)cc2)CC1", "DISCRETE LABEL": "not met"}
{"COMPOUND": "CN(C)CCC(c1ccc(Br)cc1)c1ccccn1.O=C(O)/C=C\\C(=O)O (racemic) [(±)-Brompheniramine maleate]", "DISCRETE LABEL": "met"}
{"COMPOUND": "C[N+](C)(C)CCCCCC[N+](C)(C)C [Hexamethonium bromide]", "DISCRETE LABEL": "not met"}
{"COMPOUND": "CC(C[N+](C)(C)C)OC(N)=O (stereo not shown) [Bethanechol chloride]", "DISCRETE LABEL": "met"}

---

ASSAY TARGET: Human IP6K1 (Homo sapiens, UniProt Q92551)
Construct: GST (N, cleaved yes); made in house; host or cells: C43 E. coli, pGEX-6P-2
PROTOCOL NOTES: IP6K1 high-throughput screen of the Sigma LOPAC (ADP-Glo Max, single point);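 also: final compound concentration 10µM in 5% DMSO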
Type: biochemical
MEASUREMENT SETUP: LOPAC single-point screen; Z-score from raw signal with plate average and StDev
EXPERIMENTAL ENDPOINT: Z-score

{"COMPOUND": "COc1cc2nc(N3CCN(C(=O)OCc4ccccc4)[C@H](C(=O)NC(C)(C)C)C3)nc(N)c2cc1OC [L-765,314]", "EXPERIMENTAL ENDPOINT": "Z-score", "TEST RESULT": -0.2706}
{"COMPOUND": "O=c1[nH]c2ccccc2c2ccccc12 [6(5H)-Phenanthridinone]", "EXPERIMENTAL ENDPOINT": "Z-score", "TEST RESULT": -0.1377}
{"COMPOUND": "Nc1cc(N2CCCCC2)nc(N)[n+]1[O-] [Minoxidil]", "EXPERIMENTAL ENDPOINT": "Z-score", "TEST RESULT": -0.3869}
{"COMPOUND": "S=C([S-])OC1CC2CC1C1CCCC21.[K+] [D-609 potassium]", "EXPERIMENTAL ENDPOINT": "Z-score", "TEST RESULT": -0.1119}
{"COMPOUND": "O=C(O)CN(CCN(CC(=O)O)CC(=O)O)CCN(CC(=O)O)CC(=O)O [Diethylenetriaminepentaacetic acid]", "EXPERIMENTAL ENDPOINT": "Z-score", "TEST RESULT": -0.4358}
